test system: SW-620 colon; test: NCI tumour cell line growth inhibition, 48 h
metric_name: TGI

// worked examples, TGI included
>  <compound>
COc1ccc(C2CC(c3ccc4ccccc4c3)=NN2/C=C2\SC(=S)N(NC(=O)Cc3ccccc3Nc3c(Cl)cccc3Cl)C2=O)cc1 (configuration not stated)

>  <result_value>
> 52.7 µM

$$$$
>  <compound>
CC(SC(=S)N(C)C)C(=O)Nc1nnc(-c2ccc(Cl)cc2)o1 (configuration not stated)

>  <result_value>
> 100 µM

$$$$
>  <compound>
COc1cc(C(=O)O)cc2c1[nH]c1ccccc12

>  <result_value>
> 25 µM

$$$$
>  <compound>
C=C1CC(COc2ccc3c(C)c(Cl)c(=O)oc3c2)(c2ccccc2)OC1=O (configuration not stated)

>  <result_value>
2.62 µM

$$$$
>  <compound>
Cc1ccccc1NC(=O)N/C(N)=N/c1nc(C)c(C)s1

>  <result_value>
> 100 µM

$$$$

For the next question, use this compound.
*Q* Look up TGI for this compound: CN(C)C=O.CN(C)C=O.CN1C(C(=O)Nc2ccccn2)=C([O-])c2ccccc2S1(=O)=O.CN1C(C(=O)Nc2ccccn2)=C([O-])c2ccccc2S1(=O)=O.[Cu+2]
*A* > 100 µM

----------
test system: TK-10 renal; assay: NCI tumour cell line growth inhibition, 48 h
Each record here notes measured TGI.

>  <chemical_structure>
CN(C)C=O.CN(C)C=O.CN1C(C(=O)Nc2ccccn2)=C([O-])c2ccccc2S1(=O)=O.CN1C(C(=O)Nc2ccccn2)=C([O-])c2ccccc2S1(=O)=O.[Cu+2]

>  <metric_name>
TGI

>  <result_value>
> 100 µM

$$$$
>  <chemical_structure>
Cc1ccccc1NC(=O)N/C(N)=N/c1nc(C)c(C)s1

>  <metric_name>
TGI

>  <result_value>
> 100 µM

$$$$
>  <chemical_structure>
CC(C)(c1ccccc1)c1ccc(Oc2ccc3c(c2)-c2nc-3nc3[nH]c(nc4nc(nc5[nH]c(n2)c2ccc(Oc6ccc(C(C)(C)c7ccccc7)cc6)cc52)-c2cc(Oc5ccc(C(C)(C)c6ccccc6)cc5)ccc2-4)c2ccc(Oc4ccc(C(C)(C)c5ccccc5)cc4)cc32)cc1

>  <metric_name>
TGI

>  <result_value>
> 100 µM

$$$$

*Q* Lab note: need TGI for N=C1/C(=C/c2ccco2)C(=O)N=C2SC=NN12 on TK-10 renal, anyone have it?
*A* > 100 µM

*Q* Moving on to the next compound: CS(=O)(=O)OCCCCOS(C)(=O)=O
*A* > 464 µM

----------
system: DU-145 prostate; assay: NCI tumour cell line growth inhibition, 48 h
metric_name: TGI

Solved cases (2 shown):
>  <compound>
CCOC(=O)C1C(c2ccco2)C2(C#N)C(=N)OC1(C)C2(C#N)C#N (stereo not drawn)

>  <TGI>
> 100 µM

$$$$
>  <compound>
CC(=O)N(CN1C(=O)CCC1C(=O)O)c1ccc(C)cc1 (stereo not drawn)

>  <TGI>
> 100 µM

$$$$

Let us examine a further case.
*Q* Quick one: TGI of O=S(Nc1ccccc1)c1ccccc1Oc1ccccc1 (stereo not drawn) ?
*A* > 100 µM

----------
tested on: SK-OV-3 ovarian; assay: NCI tumour cell line growth inhibition, 48 h
metric_name: TGI

Use the examples below as a reference point.
>  <molecule>
COc1ccc(/C=C(/C(=O)N2CCN(c3ccc(C)cc3)CC2)c2cc(OC)c(OC)c(OC)c2)cc1N

>  <experimental_target>
SK-OV-3 ovarian

>  <TGI>
> 100 µM

$$$$
>  <molecule>
Cc1cccc(C)c1NC(=O)C(=O)C(c1ccccc1Cl)S(=O)(=O)Cc1ccccc1Cl (stereo not drawn)

>  <experimental_target>
SK-OV-3 ovarian

>  <TGI>
> 61 µM

$$$$
>  <molecule>
COC1CC(=O)C2C(=O)N(c3ccccc3)C(=O)C23C(C(=O)c2ccccc2)=C(C)NC13O (stereo not drawn)

>  <experimental_target>
SK-OV-3 ovarian

>  <TGI>
54 µM

$$$$
>  <molecule>
O=C(O)c1[nH]c(=O)[nH]c(=O)c1CN1CCCCC1

>  <experimental_target>
SK-OV-3 ovarian

>  <TGI>
> 100 µM

$$$$
>  <molecule>
CCOc1cccc2sc(N)nc12

>  <experimental_target>
SK-OV-3 ovarian

>  <TGI>
> 100 µM

$$$$

*Q* # input molecule: O=c1[nH]ccc2nc(N3CCC(O)CC3)nc(Nc3ccc(N4CCOCC4)cc3)c12 ; wanted: its TGI
*A* > 100 µM

*Q* # repeat for Nc1ncnc2c1ncn2C1OC(CO)CC1O (stereo not drawn)
*A* > 100 µM

*Q* Same read-out for OC1C2CCC3C2CC(C(O)(c2ccccc2)c2ccccc2)C13 (stereo not drawn) ?
*A* > 100 µM

*Q* Now the molecule CC(=O)O[C@H]1C[C@H]2[C@@H]([C@H](OC(C)=O)C[C@@H]3CC4(CC[C@@]32C)OOC2(CCCCC2)OO4)[C@@H]2CC[C@H]([C@H](C)CCC(N)=O)[C@@]12C
*A* 25.5 µM

*Q* Now the same for CN(Cc1ccccc1)c1ncnc2ccc(Br)cc12
*A* 30.3 µM

*Q* Another molecule to look at: CCN1C(=O)/C(=C\c2coc3ccccc3c2=O)SC1=S
*A* > 100 µM

*Q* Lookup Cc1ccc(N/C(=C(/C(Cl)=C(Cl)Cl)[N+](=O)[O-])n2nnc3ccccc32)cc1
*A* 35.8 µM

*Q* Cool, now CCOc1ccccc1NC(=O)CSc1nnc(Cc2ccccc2)o1
*A* > 100 µM

*Q* Same question, Clc1ccc(C2ON=C(c3ccccc3)N2C23CC4CC(CC(C4)C2)C3)cc1Cl (stereo not drawn) this time
*A* > 10 µM

*Q* Then what about the molecule Cc1c2ccccc2c(CSC(=N)N)c2ccccc12 ?
*A* 2.67 µM

*Q* What do you have for Clc1cc(Cl)cc(C2SCc3nc4ccccc4n32)c1 (stereo not drawn) ?
*A* 63.8 µM

*Q* Now give it for COc1ccc(NC(=O)COc2ccccc2)c(C(N)=O)c1 too.
*A* > 100 µM

*Q* And CCCCCCCCCCCCCCCCCCNc1ccn(C2OC(COP(=O)(O)OCC(COP(=O)(O)OCC3OC(n4cc(C)c(=O)[nH]c4=O)CC3N=[N+]=[N-])OCCCCCCCCCCCCCCCCCC)C(O)C2O)c(=O)n1 (stereo not drawn) ?
*A* > 100 µM

*Q* Another molecule: Nc1c(C(=O)c2ccc(Cl)cc2)[nH]c(Nc2ccc(Cl)cc2)c1C(=S)Nc1ccccc1
*A* 19.3 µM

*Q* Can you handle O=P1(N(CCCl)CCCl)Oc2c(Cl)cc(Cl)c(Cl)c2Cc2c(Cl)c(Cl)cc(Cl)c2O1 next?
*A* > 100 µM

*Q* Follow-up entry: COC1=CC(=O)c2c(O)c3c(c(O)c2C1=O)OC1(Oc2c(cc4cc(C)oc(=O)c4c2O)CC1O)C3O (stereo not drawn)
*A* > 100 µM

*Q* # iterate: CCCCN1C(=O)C2c3[nH]c4ccccc4c3C3CCCCC3C2C1=O (mixture of isomers)
*A* 47.7 µM

*Q* Same lookup for c1ccc(C2(c3ccccc3)S/C(=C3/SC(c4ccccc4)(c4ccccc4)c4ccccc43)c3ccccc32)cc1 , please.
*A* > 100 µM

*Q* Continue with [O-]c1ccccc1[C-]=Nc1ccccc1O.[O-]c1ccccc1[C-]=Nc1ccccc1O.[O]=[U]=[O]
*A* 71 µM

*Q* Query NS(=O)(=O)c1ccc(C(=O)O)cc1 next
*A* > 100 µM

*Q* Try this molecule too: COc1ccc2c(c1)OCC1=C2Oc2ccccc2C1
*A* > 100 µM

*Q* Another molecule to check: Cc1cc(Cl)ccc1NC(=O)C1C(=O)C(=O)N(c2ccc(Cl)cc2C)C1=O (stereo not drawn)
*A* > 100 µM

*Q* CS(=O)(=O)OCCCCOS(C)(=O)=O ?
*A* > 1000 µM

*Q* # repeat for C=C(c1ccc(OC)c(/C=C/C(=O)c2cc(OC)c(OC)c(OC)c2)c1)c1cc(OC)c(OC)c(OC)c1
*A* > 100 µM

*Q* Next record, please: O=S(Cc1cnc2ccccc2c1)c1nc2ccccc2nc1-c1cccs1 (stereo not drawn)
*A* 73 µM

*Q* How about this molecule: O=C(/C=C/c1ccccc1)Nc1ncc(Cc2ccccc2)s1
*A* 6.24 µM

*Q* Same for CCOc1cc(/C=N\O)cc(/C=N/O)c1O
*A* > 100 µM

*Q* Repeat with C=C(c1ccccc1)[C@@]1(O)CCCC[C@H]1NC(c1ccccc1)c1ccccc1
*A* 44.2 µM

----------
// TGI lookup, one value per entry
system: HCC-2998 colon; test: NCI tumour cell line growth inhibition, 48 h

# count of solved cases: 3
>  <compound>
O=C1CCN=C(NC(=O)C(F)(F)F)N1CCc1c[nH]c2ccccc12

>  <metric_name>
TGI

>  <result_value>
> 100 µM

$$$$
>  <compound>
CC(=O)O[C@H]1C[C@H]2[C@@H]([C@H](OC(C)=O)C[C@@H]3CC4(CC[C@@]32C)OOC2(CCCCC2)OO4)[C@@H]2CC[C@H]([C@H](C)CCC(N)=O)[C@@]12C

>  <metric_name>
TGI

>  <result_value>
7.41 µM

$$$$
>  <compound>
CC(=O)N(CN1C(=O)CCC1C(=O)O)c1ccc(C)cc1 (centres undefined)

>  <metric_name>
TGI

>  <result_value>
> 100 µM

$$$$

Okay, now this compound:
*Q* Hello, I am looking for reported TGI with HCC-2998 colon for O=C(CC(O)c1cccnc1)CC(O)c1cccnc1 (centres undefined) . Could you help?
*A* 28.6 µM
